subject-of-test: GHSR-1a (HEK293/GHSR1a cell line) (Homo sapiens)
Construct: expressed in transfected cells; host or cells: HEK293/GHSR1a cell line
Sequence (Q92847 whole entry): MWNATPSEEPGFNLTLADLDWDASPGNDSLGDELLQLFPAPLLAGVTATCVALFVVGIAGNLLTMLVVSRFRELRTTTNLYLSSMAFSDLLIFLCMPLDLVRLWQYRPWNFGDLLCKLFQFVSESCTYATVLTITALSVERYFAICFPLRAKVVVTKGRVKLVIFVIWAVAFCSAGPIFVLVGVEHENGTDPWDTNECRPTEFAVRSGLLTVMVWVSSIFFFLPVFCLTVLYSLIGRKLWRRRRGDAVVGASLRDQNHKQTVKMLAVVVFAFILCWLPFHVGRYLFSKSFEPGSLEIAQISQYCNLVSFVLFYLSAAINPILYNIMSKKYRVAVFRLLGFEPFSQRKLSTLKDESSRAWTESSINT
assay-procedure: Ghrelin antagonist potency (IC50) with calcium FLIPR assay, ghrelin 10 nM
Assay type: cell-based
test-parameters: ghrelin antagonist potency, read-out: IC50 (Activity)
Each entry below carries its recorded pIC50.
In textbook form, pIC50 equals minus log to base ten of the concentration in mol/L.

Below, each entry is followed by its recorded pIC50 result.
| molecule | subject-of-test | pIC50 |
| --- | --- | --- |
| C[C@H](NC(=O)Nc1ccc(S(=O)(=O)Nc2ccc(N)cn2)cc1)c1cccc(Cl)c1Cl.Cl | GHSR-1a (HEK293/GHSR1a cell line) (Homo sapiens) | 6.06 |
| CC(NC(=O)Nc1ccc(S(=O)(=O)Cc2ccc(CO)cc2)cc1)c1cccc2ccccc12 (centres unmarked) | GHSR-1a (HEK293/GHSR1a cell line) (Homo sapiens) | 6.24 |
| CC(NC(=O)Nc1ccc(S(=O)(=O)Nc2ccc(CO)cc2)cc1)c1ccccc1 (centres unmarked) | GHSR-1a (HEK293/GHSR1a cell line) (Homo sapiens) | 5.58 |
| COc1ccc([C@H](C)NC(=O)Nc2ccc(S(=O)(=O)Nc3ccc(CCN)cc3)cc2)c(Cl)c1Cl | GHSR-1a (HEK293/GHSR1a cell line) (Homo sapiens) | 7.08 |
| CC(C)(C)NC(=O)Nc1ccc(S(=O)(=O)Cc2ccc3c(c2)CNC3)cc1 | GHSR-1a (HEK293/GHSR1a cell line) (Homo sapiens) | 5.01 |

What the record says about `C[C@H](NC(=O)Nc1ccc(S(=O)(=O)Nc2ccc(CN)cc2)cc1)c1cccc(Cl)c1Cl` : pIC50 is 7.24

Quick note, pIC50 for `COc1ccc([C@H](C)NC(=O)Nc2ccc(S(=O)(=O)Nc3ccc4c(c3)CCCN4)cc2)c(Cl)c1Cl` landed at 5.20

Consider CCN1Cc2ccc(C(C)S(=O)(=O)c3ccc(NC(=O)NC(C)c4ccccc4)cc3)cc2C1 (centres unmarked) . Its measured pIC50 is 7.37

----------
subject-of-test: GHSR-1a (HEK293/GHSR1a cell line) (Homo sapiens)
Construct: expressed in transfected cells; host or cells: HEK293/GHSR1a cell line
assay-procedure: Ghrelin antagonist potency (IC50) with calcium FLIPR assay, ghrelin 10 nM
Format: cell-based
test-parameters: ghrelin antagonist potency, read-out: Activity IC50
Quick list: IC50 per entry.

Example results:
| molecule | subject-of-test | IC50 |
| --- | --- | --- |
| CC(c1ccccc1F)N(O)C(=O)Nc1ccc(S(=O)(=O)Cc2ccc3c(c2)CN(C)C3)cc1 (stereo not shown) | GHSR-1a (HEK293/GHSR1a cell line) (Homo sapiens) | 29.7 nM |
| CC(NC(=O)Nc1ccc(S(=O)(=O)Cc2ccc3c(c2)CNC3)c(Br)c1)c1ccccc1 (stereo not shown) | GHSR-1a (HEK293/GHSR1a cell line) (Homo sapiens) | 6.47 nM |
| CC(NC(=O)Nc1ccc(S(=O)(=O)Cc2ccc3c(c2)CNC3)cc1-c1ncco1)c1ccccc1 (stereo not shown) | GHSR-1a (HEK293/GHSR1a cell line) (Homo sapiens) | 16.4 nM |

CC(NC(=O)Nc1ccc(S(=O)(=O)Cc2ccc3c(c2)CNC3)cc1CO)c1ccccc1 (stereo not shown) on GHSR-1a (HEK293/GHSR1a cell line) (Homo sapiens) gives IC50 = 121 nM

Fill in: GHSR-1a (HEK293/GHSR1a cell line) (Homo sapiens) IC50 for CC(c1ccccc1)N(O)C(=O)Nc1ccc(S(=O)(=O)Cc2ccc3c(c2)CNC3)cc1 (stereo not shown) [H1526] = 31.9 nM

Field IC50 (system: GHSR-1a (HEK293/GHSR1a cell line) (Homo sapiens)) for entry CC(NC(=O)Nc1ccc(S(=O)(=O)Cc2ccc3c(c2)CNC3)cc1C1CC1)c1ccccc1 (stereo not shown) = 21.7 nM

The value of IC50 recorded for CC(NC(=O)Nc1ccc(S(=O)(=O)Cc2ccc3c(c2)CCNC3)cc1C(=O)O)c1ccccc1 (stereo not shown) when tested on GHSR-1a (HEK293/GHSR1a cell line) (Homo sapiens) reads 72.3 nM
